Please go through the items and note down their log10(IC50 at 72 h).
Assay Notes: Cytotoxicity against human MCF-10A cells assessed as inhibition of cell proliferation incubated for 72 hrs by CCK8 assay
Format: toxicity, cell-based
Please interpret these as log10 of IC50 at 72 h where IC50 at 72 h is in µM.

N#C[Se]CCCC(=O)Nc1ccc(C2=C(c3ccc(O)cc3)C3CC(S(=O)(=O)Oc4ccccc4)C2O3)cc1 (stereo not given) | 1.78
N#C[Se]CCCCCC(=O)Nc1ccc(C2=C(c3ccc(O)cc3)C3CC(S(=O)(=O)N(CC(F)(F)F)c4cccc(F)c4)C2O3)cc1 (stereo not given) | 0.68
N#C[Se]CCCCCC(=O)Nc1ccc(C2=C(c3ccc(O)cc3)C3CC(S(=O)(=O)Oc4ccccc4C(F)(F)F)C2O3)cc1 (stereo not given) | 1.11
COc1ccc(N(CC(F)(F)F)S(=O)(=O)C2CC3OC2C(c2ccc(NC(=O)CCCCCCC[Se]C#N)cc2)=C3c2ccc(O)cc2)cc1 (stereo not given) | 1.58
N#C[Se]CCCCCC(=O)Nc1ccc(C2=C(c3ccc(O)cc3)C3CC(S(=O)(=O)N(CC(F)(F)F)c4ccc(F)cc4)C2O3)cc1 (stereo not given) | 1.09

Okay, here is my list. What is log10(IC50 at 72 h) for each of these?
1. N#C[Se]CCCCCC(=O)Nc1ccc(C2=C(c3ccc(O)cc3)C3CC(S(=O)(=O)Oc4ccc(Br)cc4)C2O3)cc1 (stereo not given)
2. CCN(c1ccccc1F)S(=O)(=O)C1CC2OC1C(c1ccc(NC(=O)CCCCC[Se]C#N)cc1)=C2c1ccc(O)cc1 (stereo not given)
3. N#C[Se]CCCCCC(=O)Nc1ccc(C2=C(c3ccc(O)cc3)C3CC(S(=O)(=O)Oc4cccc(Cl)c4)C2O3)cc1 (stereo not given)

1. 1.27
2. 1.26
3. 1.47

====

Assay Notes: Cytotoxicity against human MCF-10A cells assessed as inhibition of cell proliferation incubated for 72 hrs by CCK8 assay
Assay type: toxicity, cell-based
Please go through the items and note down their IC50 at 72 h.
Give bare numbers, in µM.

Solved cases (3 shown):
N#C[Se]CCCCCC(=O)Nc1ccc(C2=C(c3ccc(O)cc3)C3CC(S(=O)(=O)Oc4ccccc4Br)C2O3)cc1 (centres undefined) | 7.55
N#C[Se]CCCCCC(=O)Nc1ccc(C2=C(c3ccc(O)cc3)C3CC(S(=O)(=O)Oc4cccc(Br)c4)C2O3)cc1 (centres undefined) | 22.7
N#C[Se]CCCCCC(=O)Nc1ccc(C2=C(c3ccc(O)cc3)C3CC(S(=O)(=O)Oc4ccccc4Cl)C2O3)cc1 (centres undefined) | 10.1

We next turn to a different molecule, shown below.
Retrieve IC50 at 72 h measured for CCN(c1ccc(Cl)cc1)S(=O)(=O)C1CC2OC1C(c1ccc(NC(=O)CCCCC[Se]C#N)cc1)=C2c1ccc(O)cc1 (centres undefined) and print it.
29.2

====

Target Of Assay: UniProt:P03372
Sequence (whole entry): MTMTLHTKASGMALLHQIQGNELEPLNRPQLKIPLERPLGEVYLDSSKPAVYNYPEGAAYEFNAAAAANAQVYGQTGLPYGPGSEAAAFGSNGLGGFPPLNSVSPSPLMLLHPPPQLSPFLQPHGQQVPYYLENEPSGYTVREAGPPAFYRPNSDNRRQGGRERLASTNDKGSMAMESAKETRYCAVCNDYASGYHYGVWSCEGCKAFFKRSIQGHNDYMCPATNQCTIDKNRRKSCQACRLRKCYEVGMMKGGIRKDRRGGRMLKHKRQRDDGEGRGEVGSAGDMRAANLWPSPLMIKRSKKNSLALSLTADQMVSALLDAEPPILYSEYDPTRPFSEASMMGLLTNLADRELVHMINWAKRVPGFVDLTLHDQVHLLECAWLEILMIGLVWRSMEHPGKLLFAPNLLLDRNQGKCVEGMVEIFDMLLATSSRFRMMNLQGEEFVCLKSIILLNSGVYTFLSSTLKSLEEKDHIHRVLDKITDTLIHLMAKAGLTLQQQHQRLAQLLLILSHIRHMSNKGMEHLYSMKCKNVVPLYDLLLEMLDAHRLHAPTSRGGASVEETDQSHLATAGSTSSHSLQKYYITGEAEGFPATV
Assay Notes: Binding affinity to human ERalpha assessed as relative binding affinity incubated under vibration for 1 min followed by 2 hrs incubation under dark condition by fluorescence polarization assay relative to estradiol
Experimental Conditions: time 121.0 min
Please go through the items and note down their RBA.
One number for each entry, in %.

Solved cases (2 shown):
N#C[Se]CCCCCC(=O)Nc1ccc(C2=C(c3ccc(O)cc3)C3CC(S(=O)(=O)Oc4ccccc4)C2O3)cc1 (stereo not given) | 4.72
N#C[Se]CCCCCC(=O)Nc1ccc(C2=C(c3ccc(O)cc3)C3CC(S(=O)(=O)Oc4cccc(C(F)(F)F)c4)C2O3)cc1 (stereo not given) | 0.17

Okay, here is my list. What is RBA for each of these?
1. COc1ccc(N(CC(F)(F)F)S(=O)(=O)C2CC3OC2C(c2ccc(O)cc2)=C3c2ccc(O)cc2)cc1 (stereo not given)
2. COc1ccc(N(CC(F)(F)F)S(=O)(=O)C2CC3OC2C(c2ccc(NC(=O)CCC[Se]C#N)cc2)=C3c2ccc(O)cc2)cc1 (stereo not given)
3. Cc1cccc(OS(=O)(=O)C2CC3OC2C(c2ccc(NC(=O)CCCCC[Se]C#N)cc2)=C3c2ccc(O)cc2)c1 (stereo not given)
4. COc1cccc(N(CC(F)(F)F)S(=O)(=O)C2CC3OC2C(c2ccc(NC(=O)CCCCC[Se]C#N)cc2)=C3c2ccc(O)cc2)c1 (stereo not given)

1. 0.76
2. 0.46
3. 0.99
4. 1.44
